Source listed as ChEMBL document CHEMBL3259743.

Target: Cytochrome P450 3A4 (Homo sapiens, UniProt P08684)
Sequence (P08684 whole entry): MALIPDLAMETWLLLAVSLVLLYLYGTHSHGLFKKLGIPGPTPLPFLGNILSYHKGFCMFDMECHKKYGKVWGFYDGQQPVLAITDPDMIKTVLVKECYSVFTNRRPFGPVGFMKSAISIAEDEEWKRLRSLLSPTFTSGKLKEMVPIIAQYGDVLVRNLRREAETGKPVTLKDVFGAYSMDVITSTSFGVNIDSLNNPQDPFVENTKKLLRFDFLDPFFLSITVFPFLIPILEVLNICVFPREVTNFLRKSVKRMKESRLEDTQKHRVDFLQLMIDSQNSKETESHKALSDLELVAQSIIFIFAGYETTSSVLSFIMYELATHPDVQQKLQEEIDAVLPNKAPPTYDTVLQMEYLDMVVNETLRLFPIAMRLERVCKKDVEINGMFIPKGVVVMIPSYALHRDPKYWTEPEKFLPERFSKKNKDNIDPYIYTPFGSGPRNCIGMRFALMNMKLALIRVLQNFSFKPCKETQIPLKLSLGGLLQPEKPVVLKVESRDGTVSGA
Experiment: Inhibition of human hepatocyte microsome CYP3A4 using testosterone as substrate by HPLC/MS/MS method
Just a reminder that ties go to criterion not met: only IC50 strictly below 20 µM counts as criterion met.

Given CC(C)C(O)(c1ccc2cc(OCC(F)(F)F)c(OCC(F)(F)F)cc2c1)c1c[nH]nn1 (racemic) , is recorded IC50 strictly lower than 20 µM?
criterion not met

Answer whether the molecule COc1cc2ccc(C(O)(c3cn[nH]c3)C(C)C)cc2cc1OC (racemic) has IC50 strictly less than 20 µM
criterion not met

Please indicate whether the reported IC50 of COc1cc2ccc(C(O)(c3cc[nH]n3)C(C)C)cc2cc1OC (racemic) is strictly below 20 µM.
criterion met

In plain terms, does CC(C)C(O)(c1ccc2cc(-c3cccs3)ccc2c1)c1c[nH]nn1 (racemic) come in under 20 µM for IC50?
criterion not met

For CC(C)C(O)(c1ccc2cc(OC(F)F)ccc2c1)c1c[nH]nn1 (racemic) , is the recorded IC50 below the cut-off of 20 µM?
criterion met

More entries:
A record lists COc1cc2ccc(C(O)(c3cncs3)C(C)C)cc2cc1OC (racemic) . Is its IC50 below 20 µM?
criterion met

In plain terms, does COc1cc2ccc(C(O)(c3ccncn3)C(C)C)cc2cc1OC (racemic) come in under 20 µM for IC50?
criterion met

A record lists COc1cc2ccc(C(O)(c3nc[nH]n3)C(C)C)cc2cc1OC (racemic) . Is its IC50 below 20 µM?
criterion not met

Please let me know if CC(C)C(O)(c1ccc2cc(-c3cnco3)ccc2c1)c1c[nH]nn1 (racemic) shows IC50 below 20 µM.
criterion not met
